The reported measurements were obtained from patent US20240409629A1.

Collected ADCC EC50, Jurkat-CD16a v158-NFAT-luciferase effector cells, KATOIII target cells values appear next to each entry.
biological target: human CLDN18.2 (human); assay: cell-based or functional assay
Enter the number, and then the unit.

Recorded ADCC EC50, Jurkat-CD16a v158-NFAT-luciferase effector cells, KATOIII target cells, per entry:
{"columns": ["BINDER", "RESULT VALUE"],
 "data": [
  ["humanized antibody hz28G3-2.2 (antibody, human IgG1, kappa, V domains shown) VH: QVQLVQSGAEVKKPGASVKVSCKASGYTFTDYLMLWVRQAPGQGLEWMGNINPYYGRTYYALKFQGRVTMTVDRSTSTVYMELSSLRSEDTAVYYCARDGYSLRNAMDYWGQGTLVTVSS VL: DIVMTQSPYSLAVSLGERATINCKSSQSLFNSGNQKNYLAWYQQKPGQPPKLLIYGASTRESGVPDRFTGSGSGTDFTLTISSLQAEDVAVYYCQNAHSYPYTFGQGTKVEIKR", "0.861 nM"],
  ["humanized antibody hz28G3-2.4 (antibody, human IgG1, kappa, V domains shown) VH: QVQLVQSGAEVKKPGASVKVSCKASGYTFTDYLMLWVRQAHGQSLEWMGNINPYYGRTYYALKFQGRVTMTVDRSTSTVYMELSSLRSEDTAVYYCARDGYSLRNAMDYWGQGTLVTVSS VL: DIVMTQSPYSLAVSLGERATINCKSSQSLFNSGNQKNYLAWYQQKPGQPPKLLIYGASTRESGVPDRFTGSGSGTDFTLTISSLQAEDVAVYYCQNAHSYPYTFGQGTKVEIKR", "0.275 nM"]
]}

Please turn your attention to the following entry.
The reported value for humanized antibody hz28G3-1.1 (antibody, human IgG1, kappa, V domains shown) VH: QVQLVQSGAEVKKPGASVKVSCKTSGYSFTDYLMLWVRQAPGQGLEWMGNINPYYGRTTYALKFKGRVTMTVDRSTSTVYMELSSLRSEDTAVYYCARDGYSLRNAMDYWGQGTLVTVSS VL: DIVMTQSPDSLAVSLGERATINCKSSQSLFNSGNQKNYLAWYQQKPGQPPKLLIYGASTRESGVPDRFSGSGSGTDFTLTISSLQAEDVAVYYCQNAHSYPYTFGQGTKVEIKR in terms of ADCC EC50, Jurkat-CD16a v158-NFAT-luciferase effector cells, KATOIII target cells is 0.139 nM
